- experimental_target: FSHR (Homo sapiens)
- Construct: expressed in transfected cells; host or cells: CHO (Cho-FSHR-LUC-1-1-43)
- run_description: EC50 of cyclic AMP production in CHO FSHR cells + EC20 FSH (Assay A)
- Assay type: cell-based
- cond: CHO FSHR cells + EC20 FSH; Table 2; read-out: Assay A EC50 of cyclic AMP production
- Procedure: Example 10: EC50 of Cyclic AMP Production in CHO FSHR Cells+EC20 FSH (Assay A) 2500 Cho-FSHR-LUC-1-1-43 cells were plated per well in 5 μl of phenol red free DMEM/F12+1% FBS. Cells were plated in 384 well, solid white low volume plates (Greiner 784075) by Multidrop. […] The plates were read on Envision using the cAMP HTRF—low volume 384 well protocol. The readout was the calculated fluorescence ratio (665 nm/620 nm). […]
The entries below come with measured EC50 values attached.

compound | EC50
Cc1csc(CCCNC(=O)c2ccc(N3CCN(c4ccccc4C)CC3)c(NC(=O)c3coc(C4CC4)n3)c2)n1 [Compound 395] | 0.1 to 1 µM
Cc1ccccc1N1CCN(c2ccc(C(=O)NCCCc3cccc(O)c3)cc2NC(=O)c2coc(C3CC3)n2)CC1 [Compound 570] | 0.1 to 1 µM
Cc1ccccc1N1CCN(c2ccc(C(=O)N3CCC4(CC3)COC4)cc2NC(=O)c2coc(C3CC3)n2)CC1 [Compound 571] | 0.1 to 1 µM

* * *

- experimental_target: FSHR (Homo sapiens, UniProt P23945)
- Construct: expressed in transfected cells; host or cells: CHO (Cho-FSHR-LUC-1-1-43)
- Sequence (P23945 18-695): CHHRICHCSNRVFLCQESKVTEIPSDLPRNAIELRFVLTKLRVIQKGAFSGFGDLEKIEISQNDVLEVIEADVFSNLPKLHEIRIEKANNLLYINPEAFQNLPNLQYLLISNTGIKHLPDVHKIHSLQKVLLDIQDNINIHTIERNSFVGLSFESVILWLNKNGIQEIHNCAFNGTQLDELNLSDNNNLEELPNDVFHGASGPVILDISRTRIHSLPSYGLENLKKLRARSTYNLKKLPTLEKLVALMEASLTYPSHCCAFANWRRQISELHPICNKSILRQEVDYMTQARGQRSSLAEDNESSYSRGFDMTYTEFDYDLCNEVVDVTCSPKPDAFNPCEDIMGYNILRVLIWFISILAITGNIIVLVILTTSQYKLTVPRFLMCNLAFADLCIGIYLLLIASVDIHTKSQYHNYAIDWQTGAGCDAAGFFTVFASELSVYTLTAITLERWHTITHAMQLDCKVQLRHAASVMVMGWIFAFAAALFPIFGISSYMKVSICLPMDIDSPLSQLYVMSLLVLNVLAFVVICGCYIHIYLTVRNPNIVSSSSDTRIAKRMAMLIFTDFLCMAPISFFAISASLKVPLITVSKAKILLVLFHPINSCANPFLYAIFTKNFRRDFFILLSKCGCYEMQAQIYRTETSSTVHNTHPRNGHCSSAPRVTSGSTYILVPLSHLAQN
- Sequence (P01215 25-116 partner): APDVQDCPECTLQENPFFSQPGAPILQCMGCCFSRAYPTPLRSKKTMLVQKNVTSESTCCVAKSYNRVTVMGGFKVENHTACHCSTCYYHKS
- Sequence (P01225 19-129 partner): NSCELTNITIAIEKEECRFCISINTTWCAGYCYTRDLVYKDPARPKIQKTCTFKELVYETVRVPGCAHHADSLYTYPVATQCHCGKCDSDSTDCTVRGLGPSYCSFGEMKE
- run_description: EC50 of cyclic AMP production in CHO FSHR cells + EC20 FSH (Assay A)
- Assay type: cell-based
- cond: CHO FSHR cells + EC20 FSH; Table 1; read-out: Assay A EC50 of cyclic AMP production
- Procedure: Example 10: EC50 of Cyclic AMP Production in CHO FSHR Cells+EC20 FSH (Assay A) 2500 Cho-FSHR-LUC-1-1-43 cells were plated per well in 5 μl of phenol red free DMEM/F12+1% FBS. Cells were plated in 384 well, solid white low volume plates (Greiner 784075) by Multidrop. […] The plates were read on Envision using the cAMP HTRF—low volume 384 well protocol. The readout was the calculated fluorescence ratio (665 nm/620 nm). […]
pEC50: −log10 of the molar value.
The entries below come with measured pEC50 values attached.

molecule | pEC50
C=CC(=O)NCCNC(=O)c1ccc(N2CCN(c3ccccc3C)CC2)c(NC(=O)c2ccco2)c1 | 6.00 to 7.00
Cc1ccccc1N1CCN(c2ccc(C(=O)NCCCN3C(=O)CSC3=O)cc2NC(=O)c2ccco2)CC1 | 6.00 to 7.00
COc1ccc(C(=O)Nc2cc(C(=O)NCCCN3CCCC3=O)ccc2N2CCN(c3ccccc3C)CC2)cc1 | 6.00 to 7.00
Cc1ccccc1N1CCN(c2ccc(C(=O)NCCCN3CCCC3=O)cc2NC(=O)c2ccoc2C)CC1 | 5.00 to 6.00
Cc1ccccc1N1CCN(c2ccc(C(=O)NCCCN3CCCC3=O)cc2NC(=O)c2ccc(C#N)cc2)CC1 | 5.00 to 6.00
Cc1ccccc1N1CCN(c2ccc(C(=O)NCCCN3CCCC3=O)cc2NC(=O)c2ccc(Cl)cn2)CC1 | 6.00 to 7.00
Cc1ccccc1N1CCN(c2ccc(C(=O)NCCCN3CCCC3=O)cc2NC(=O)c2csc(Br)n2)CC1 | 5.00 to 6.00
Cc1ccccc1N1CCN(c2ccc(C(=O)NCCCN3CCCC3=O)cc2NC(=O)c2coc(C3CC3)n2)CC1 | > 7.00
Cc1ccccc1N1CCN(c2ccc(C(=O)NCCCc3cn[nH]c3)cc2NC(=O)c2coc(C3CC3)n2)CC1 | 6.00 to 7.00
Cc1ccccc1N1CCN(c2ccc(C(=O)NCCCN3CCCC3=O)cc2NC(=O)c2occc2Br)CC1 | 5.00 to 6.00
Cc1ccccc1N1CCN(c2ccc(C(=O)NCCCN3CCCC3=O)cc2NC(=O)c2cccs2)CC1 | 6.00 to 7.00
Cc1ccccc1N1CCN(c2ccc(C(=O)NCCCN3CCCC3=O)cc2NC(=O)c2scnc2C)CC1 | < 5.00
Cc1cccc(N2CCN(c3ccc(C(=O)NCCCN4CCCC4=O)cc3NC(=O)c3ccc(C)o3)CC2)c1 | 5.00 to 6.00
Cc1ccccc1N1CCN(c2ccc(C(=O)NC3CCN(C(=O)OC(C)(C)C)CC3)cc2NC(=O)c2ccco2)CC1 | 6.00 to 7.00
Cc1ccccc1N1CCN(c2ccc(C(=O)NCCCN3CCCC3=O)cc2NC(=O)C2CCCCC2)CC1 | 5.00 to 6.00
Cc1ccc(C(=O)Nc2cc(C(=O)NC3CC3)ccc2N2CCN(c3ccccc3C)CC2)o1 | 5.00 to 6.00
Cc1ccc(C(=O)Nc2cc(C(=O)NCCCN3CCCC3=O)ccc2N2CCN(c3ccccc3)CC2)o1 | 5.00 to 6.00
O=C(NCC1CCCO1)c1ccc(N2CCN(Cc3ccccc3)CC2)c(NC(=O)c2ccccc2Cl)c1 (stereo not shown) | 6.00 to 7.00
Cc1ccccc1N1CCN(c2ccc(C(=O)NCCCN3CCCC3=O)cc2NC(=O)c2cccc(Cl)c2)CC1 | 5.00 to 6.00
Cc1ccccc1N1CCN(c2ccc(C(=O)N[C@@H](C)C(=O)NC3CCCC3)cc2NC(=O)c2ccco2)CC1 | 5.00 to 6.00
Cc1ccccc1N1CCN(c2ccc(C(=O)NCCCN3CCCC3=O)cc2NC(=O)CC(C)C)CC1 | 5.00 to 6.00
Cc1nc(C(=O)Nc2cc(C(=O)NCCCN3CCCC3=O)ccc2N2CCN(c3ccccc3C)CC2)c(C(F)(F)F)o1 | 5.00 to 6.00

src = patent US9938262B2
